Data provenance: ChEMBL document CHEMBL3044921

Tested on: Pseudomonas aeruginosa
Assay: Antibacterial activity against Pseudomonas aeruginosa ATCC 27853 assessed as growth inhibition after 16 to 18 hr by serial plate dilution method
Type: functional
Give measured MIC for each item. Keep answers brief.
Express the reported value numerically, then name its unit.

Specify MIC for `Cc1c(CNC(=O)CCc2cn(C)c3ccc(Cl)cc23)c2cc(OC(F)(F)F)ccc2n1C` and stop.
25 µg/mL

Specify MIC for `O=C(CCc1c[nH]c2ccc(Cl)cc12)NCc1c[nH]c2ccc(OC(F)(F)F)cc12` and stop.
6.25 µg/mL

Specify MIC for `Cn1cc(CCC(=O)NCCCc2c[nH]c3ccc(Cl)cc23)c2cc(Cl)ccc21` and stop.
6.25 µg/mL

Specify MIC for `Cn1cc(CCCNC(=O)CCc2c[nH]c3ccc(Cl)cc23)c2cc(Cl)ccc21` and stop.
12.5 µg/mL

Specify MIC for `Cc1[nH]c2ccc(OC(F)(F)F)cc2c1CNC(=O)CCc1c[nH]c2ccc(Cl)cc12` and stop.
6.25 µg/mL

Specify MIC for `Cc1c(CNC(=O)CCc2c[nH]c3ccc(Cl)cc23)c2cc(OC(F)(F)F)ccc2n1C` and stop.
6.25 µg/mL

Specify MIC for `Cc1[nH]c2ccc(OC(F)(F)F)cc2c1CCCNC(=O)CCc1c[nH]c2ccc(Cl)cc12` and stop.
6.25 µg/mL

Specify MIC for `Cn1cc(CNC(=O)CCc2c[nH]c3ccc(Cl)cc23)c2cc(Cl)ccc21` and stop.
25 µg/mL

Specify MIC for `Cn1cc(CCCNC(=O)CCc2c[nH]c3ccc(Cl)cc23)c2cc(OC(F)(F)F)ccc21` and stop.
6.25 µg/mL
